We begin with a simple list: items and their reported inhibition at 0.3 µM.
# assayed.system: β-secretase(BACE) (Homo sapiens, UniProt P56817)
# Construct: purchased Panvera
# Sequence (P56817 46-501): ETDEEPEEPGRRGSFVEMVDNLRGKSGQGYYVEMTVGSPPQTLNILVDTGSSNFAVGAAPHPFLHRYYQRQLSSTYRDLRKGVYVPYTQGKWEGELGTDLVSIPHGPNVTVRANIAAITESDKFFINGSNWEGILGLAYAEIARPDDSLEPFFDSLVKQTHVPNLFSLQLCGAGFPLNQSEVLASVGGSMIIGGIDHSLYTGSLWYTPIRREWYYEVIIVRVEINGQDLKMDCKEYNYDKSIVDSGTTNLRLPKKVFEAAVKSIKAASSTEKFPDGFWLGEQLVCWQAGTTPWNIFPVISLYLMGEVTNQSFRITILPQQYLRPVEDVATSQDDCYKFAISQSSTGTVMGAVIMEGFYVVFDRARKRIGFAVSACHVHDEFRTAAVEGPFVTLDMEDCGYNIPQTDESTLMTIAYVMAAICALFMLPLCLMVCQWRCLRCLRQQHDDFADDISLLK
# protocol.summary: BACE FS1% Inhibition Assay
# Type: biochemical
# condition.label: 0.3 μM test compound; FS1 substrate; read-out: % Inhibition (FS) 0.3 μM
property.name: inhibition at 0.3 µM

• COc1cccc(-c2ccc3c(c2)CN(Cc2cccc(C(=O)N(C)C4CCCCC4)c2)C(N)=N3)c1 = < 30%
• CN(C(=O)c1cccc(CN2Cc3cc(Sc4ccccc4)ccc3N=C2N)c1)C1CCCCC1 = 19.9%
• CN(C(=O)CCC(C1CCOCC1)N1Cc2cc(Oc3ccccc3)ccc2N=C1N)C1CCCCC1 (stereo not shown) = 119%
• Cc1ccccc1Sc1ccc2c(c1)CN(Cc1cccc(C(=O)N(C)C3CCCCC3)c1)C(N)=N2 = < 30%
• CC(C)C(CC(=O)N(C)C1CCCCC1)N1Cc2cc(Oc3ccccc3)ccc2N=C1N (stereo not shown) = < 30%
• CCCCC(CC)C(=O)NCC(C1CCCCC1)N1Cc2cc(Oc3ccccc3)ccc2N=C1N (stereo not shown) = < 30%
• COc1ccccc1-c1ccc2c(c1)CN(C(CCC(=O)N(C)C1CCCCC1)C1CCCCC1)C(N)=N2 (single isomer, unassigned) [Compound 530] = < 30%

----------
# assayed.system: β-secretase(BACE) (Homo sapiens)
# Construct: purchased Panvera
# protocol.summary: BACE % Inhibition Assay ((Aedens)-[…]-(Dabcyl K-amide) substrate)
# Assay type: biochemical
# condition.label: 10 μM test compound; % error ±10%; read-out: % Inhibition
We begin with a simple list: items and their reported inhibition at 10 µM.
property.name: inhibition at 10 µM (%)

- CN(C(=O)CCC(CCC(=O)N(C)C1CCCCC1)N1Cc2cc(Oc3ccccc3)ccc2N=C1N)C1CCCCC1: 63
- NC1=Nc2ccc(C(=O)c3ccccc3)cc2CN1CCNC(=O)C1CCCCC1: 87
- CN(C(=O)c1cccc(CN2Cc3cc(Oc4cccc(NS(=O)(=O)c5ccccc5)c4)ccc3N=C2N)c1)C1CCCCC1: 96
- CC(C)(C)OC(=O)NCCCN1Cc2cc(Oc3ccccc3)ccc2N=C1N: 74
- CN(Cc1cccc2ccccc12)C(=O)CCCCN1Cc2cc(C(=O)c3ccccc3)ccc2N=C1N: 56
- NC1=Nc2ccc(C(=O)c3ccccc3)cc2CN1CCCCC(=O)N(C1CCCCC1)C1CCCCC1: 82
- CCCN1Cc2cc(Oc3cccc(N(C(=O)OCc4ccccc4)C4CCCCC4)c3)ccc2N=C1N: 90
- NC1=Nc2ccc(Oc3ccccc3)cc2CN1CCNC(=O)C1CCCC1: 92
- CN(CCc1ccccc1)C(=O)CCCCN1Cc2cc(C(=O)c3ccccc3)ccc2N=C1N: 34
- CC(C)(C)OC(=O)NCCCCN1Cc2cc(Oc3ccccc3)ccc2N=C1N: 64
- NC1=Nc2ccc(Oc3ccccc3)cc2CN1CCNC(=O)C1CCCCC1: 94
- CCCN1Cc2cc(Oc3cccc(NS(=O)(=O)c4ccccc4)c3)ccc2N=C1N: 87
- NC1=Nc2ccc(Oc3ccccc3)cc2CN1CCCNC(=O)C1CCCCC1: 90
- NC1=Nc2ccc(C(=O)c3ccccc3)cc2CN1CCCCNC(=O)C1CCCCC1: 48
- CCCN1Cc2cc(Oc3cccc(NCC4CCCCC4)c3)ccc2N=C1N: 95
- NC1=Nc2ccc(Oc3ccccc3)cc2CN1Cc1cccc(C(=O)N(C2CCCCC2)C2CCCCC2)c1: 99
- CC(C)(C)OC(=O)NCCN1Cc2cc(Oc3ccccc3)ccc2N=C1N: 80
